molecular target: Gag-Pol polyprotein (Human immunodeficiency virus type 1 group M subtype B (isolate HXB2), UniProt P04585); experiment: HIV-1 RT RNase H inhibitor potency, dose response, biochemical, probe assessment (AID 652); settings: pH 8; 23 °C
Classify: class 1 when IC50 is strictly less than 10 µM; class 0 when IC50 is not.

Take a look at these entries with their results.
COMPOUND	CLASS LABEL
c1ccc(-c2ccc(C3=Nc4ncnn4C(c4ccco4)C3)cc2)cc1 (stereo not given)	class 0
Nc1ccc(-c2nnc(-c3ccc(-c4ccccc4)cc3)o2)cc1	class 1
CCOc1cc(C2CC(=O)N3CN(C4CCCCC4)CSC3=C2C#N)ccc1O (stereo not given)	class 0

## Task Hello, I'm reviewing records and need to know if IC50 of COc1ccccc1N1CSC2=C(C#N)C(c3ccc(SC)cc3)CC(=O)N2C1 (stereo not given) is below 10 µM. Could you check?
## Result class 1

## Task Field entry: CN1CSC2=C(C#N)C(c3cccc(OCc4ccccc4)c3)CC(=O)N2C1 (stereo not given)
## Result class 0
